- measurementProtocol: Plasma concentration in BALB/c mouse at 10 mg/kg, iv at 1 hr administered as bolus dose
- Format: ADME, organism-based
- Parameters: dose 10 mg/kg, route intravenous
valueType: concentration at 1 h (nM)

# lineNotation, units, dataValue
data = [
    ("COc1cc(Nc2cnc(C#N)c(O[C@@H]3CCN(C)C3)n2)ncc1-c1cnn(C)c1", "nM", 1180),
    ("CNc1cc(Nc2cnc(C#N)c(O[C@H]3CCNC3)n2)ncc1-c1cnn(C)c1", "nM", 254),
    ("CNc1cc(Nc2cnc(C#N)c(O[C@H]3CCN(C)C3)n2)ncc1-c1cnn(C)c1", "nM", 147),
    ("C#Cc1cnc(Nc2cnc(C#N)c(O[C@H](C)CN(C)C)n2)cc1NC", "nM", 833),
    ("COc1cc(Nc2cnc(C#N)c(O[C@H](C)CN(C)C)n2)ncc1-c1cnn(C)c1", "nM", 1850),
    ("CNc1cc(Nc2cnc(C#N)c(O[C@H](C)CN(C)C)n2)ncc1-c1cnn(C)c1", "nM", 910),
]

1. CNc1cc(Nc2cnc(C#N)c(O[C@H](C)CN(C)C)n2)ncc1C(F)(F)F
2. CNc1cc(Nc2cnc(C#N)c(O[C@H](C)CN(C)C)n2)ncc1C1CC1
**Query** # compare concentration at 1 h for 1 vs 2 ; return the one with the smaller value Refer to your chosen item by its label in the answer.
**Result** 2

---

- measurementProtocol: Plasma concentration in BALB/c mouse at 10 mg/kg, po at 1 hr
- Assay type: ADME, organism-based
- Design: dose 10 mg/kg, route oral
valueType: concentration at 1 h (nM)

# lineNotation, valueType, dataValue
rows = [
    ("CNc1cc(Nc2cnc(C#N)c(O[C@H](C)CN(C)C)n2)ncc1C1CC1", "concentration at 1 h", 80),
    ("CNc1cc(Nc2cnc(C#N)c(O[C@H]3CCNC3)n2)ncc1-c1cnn(C)c1", "concentration at 1 h", 3),
    ("C#Cc1cnc(Nc2cnc(C#N)c(O[C@H](C)CN(C)C)n2)cc1NC", "concentration at 1 h", 439),
]

a. CNc1cc(Nc2cnc(C#N)c(O[C@H]3CCN(C)C3)n2)ncc1-c1cnn(C)c1
b. COc1cc(Nc2cnc(C#N)c(O[C@@H]3CCN(C)C3)n2)ncc1-c1cnn(C)c1
**Query** # compare concentration at 1 h for a vs b ; return the one with the smaller value Refer to your chosen item by its label in the answer.
**Result** a
(a: 18 nM, b: 264 nM)

I. CNc1cc(Nc2cnc(C#N)c(O[C@@H]3CCN(C)C3)n2)ncc1-c1cnn(C)c1
II. CNc1cc(Nc2cnc(C#N)c(O[C@H](C)CN(C)C)n2)ncc1C(F)(F)F
**Query** # compare concentration at 1 h for I vs II ; return the one with the smaller value Refer to your chosen item by its label in the answer.
**Result** I

---

- testedTarget: Serine/threonine-protein kinase Chk1 (Homo sapiens, UniProt O14757)
- Sequence (O14757 whole entry): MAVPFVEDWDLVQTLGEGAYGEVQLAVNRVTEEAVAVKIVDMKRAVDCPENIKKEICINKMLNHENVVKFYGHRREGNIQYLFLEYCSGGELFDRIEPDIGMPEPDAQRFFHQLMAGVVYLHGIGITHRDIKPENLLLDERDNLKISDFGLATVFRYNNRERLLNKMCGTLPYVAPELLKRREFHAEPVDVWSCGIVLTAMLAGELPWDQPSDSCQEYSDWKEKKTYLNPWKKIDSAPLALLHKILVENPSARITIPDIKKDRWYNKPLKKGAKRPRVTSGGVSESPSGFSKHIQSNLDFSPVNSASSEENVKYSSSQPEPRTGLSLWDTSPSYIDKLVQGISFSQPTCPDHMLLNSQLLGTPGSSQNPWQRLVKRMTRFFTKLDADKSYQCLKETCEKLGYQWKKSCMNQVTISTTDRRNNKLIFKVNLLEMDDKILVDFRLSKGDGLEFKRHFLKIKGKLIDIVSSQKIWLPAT
pIC50: −log10 of the molar value.
valueType: pIC50

Worked examples follow.
# lineNotation, pIC50
records = [
    ("COC(=O)c1cnc(Nc2cnc(C#N)c(O[C@@H]3CCNC3)n2)cc1SC", 7.74),
    ("CNc1cc(Nc2cnc(C#N)c(O[C@H](C)CN(C)C)n2)ncc1C(F)(F)F", 7.68),
    ("COc1cc(Nc2cnc(C#N)c(O[C@H](C)CN(C)C)n2)ncc1-c1cnn(C)c1", 8.11),
]

A. CSc1cc(Nc2cnc(C#N)c(O[C@H](C)CN(C)C)n2)ncc1-c1cnn(C)c1
B. COC(=O)c1cnc(Nc2cnc(C#N)c(O[C@@H]3CCNC3)n2)cc1OC
C. C#Cc1cnc(Nc2cnc(C#N)c(O[C@H](C)CN(C)C)n2)cc1NC
D. CNc1ccnc(Nc2cnc(C#N)c(O[C@H](C)CN(C)C)n2)c1
E. CNc1cc(Nc2cnc(C#N)c(O[C@H]3CCN(C)C3)n2)ncc1-c1cnn(C)c1
**Query** Sequence the entries by pIC50, beginning with the highest number. Form entry: ranked labels (order as requested).
**Result** E, C, A, B, D
(E: 8.47, C: 7.96, A: 7.57, B: 7.33, D: 7.01)
